System: Trypanosoma cruzi
Assay: GSK_TCAKS: pIC50 Trypanosoma cruzi Imaging: Infected Cells. […] Cells were then washed once with PBS before infection. T. cruzi trypomastigotes, collected at days 5 to 8 after infection from LLC-MK2 parasite infected cultures, were allowed to swim out for 4h at 37C from a centrifuged pellet (2,500 rpm/10 min/room temperature). Trypomastigotes were then collected and counted in a CASY Cell Counter. Trypomastigotes, in supplemented DMEM, were added to H9c2 cultures in a multiplicity of infection of 1 and incubated for 18 h. Cells were washed once with PBS before incubation of the infected H9c2 monolayer with trypsin (Life-Technologies) to detach cells from the flask. Cells were counted in a CASY Cell Counter using a 150 um capillary and their density set at 5 * 10^4 cells per mL in supplemented assay DMEM. Infected H9c2 were dispensed into 384-well poly-lysine coated assay plates at 50uL per well using a Multidrop Combi dispenser. After seeding them, the plates were incubated at 37C, 5% CO2 for 72h. Cultures were then fixed and stained by addition of 50 uL of a solution containing 8% formaldehyde and 4 uM DRAQ5 DNA dye (BioStatus, UK) per well. […] Five images were collected per well for reliable statistical analysis. Automated image analysis was performed with a script developed on Acapella High Content Imaging and Analysis Software (PerkinElmer). Output: percentage of infected cells per well as a second infection marker.
Type: functional, organism-based, Rattus norvegicus
Details: H9c2, 4 h
Readout name: log10(IC50) (log10 of the value in nM)

{"Compound": "Cc1nn(-c2ccccc2)nc1CNC(=O)CN(Cc1ccccn1)Cc1ccccn1", "Target system": "Trypanosoma cruzi", "Result": 4.00}
{"Compound": "O=C(C1CCCCC1)N1CCN(c2nnc(-c3ccccc3)c3ccccc23)CC1", "Target system": "Trypanosoma cruzi", "Result": 2.80}
{"Compound": "O=C(NCc1ccc(-n2cccc2)cc1)c1nc(Cn2ccc([N+](=O)[O-])n2)no1", "Target system": "Trypanosoma cruzi", "Result": 3.40}
{"Compound": "CC(Cn1ccnc1)NC(=O)C1CC1c1cccc(Cl)c1Cl (stereo unspecified)", "Target system": "Trypanosoma cruzi", "Result": 2.40}
{"Compound": "NCc1ccc2c(Cl)cc(Cl)c(O)c2n1", "Target system": "Trypanosoma cruzi", "Result": 3.30}
{"Compound": "CC(Cn1ccnc1)NC(=O)COc1ccc(Cl)c(Cl)c1 (stereo unspecified)", "Target system": "Trypanosoma cruzi", "Result": 2.70}
{"Compound": "O=C(Nc1ccc(C(F)(F)F)cc1)Nc1cccc([N+](=O)[O-])c1", "Target system": "Trypanosoma cruzi", "Result": 3.10}
{"Compound": "COc1ccc(C2CC(c3ccc(NS(C)(=O)=O)cc3)=NN2C(=O)c2cccs2)cc1OC (stereo unspecified)", "Target system": "Trypanosoma cruzi", "Result": 4.50}
{"Compound": "CCN(Cc1nc2ccc(C(=O)N3CCN(c4ncccn4)CC3)cc2[nH]1)C1CCCc2cccnc21 (stereo unspecified)", "Target system": "Trypanosoma cruzi", "Result": 4.10}
{"Compound": "COc1ccc(S(=O)(=O)NC(C)C)cc1Nc1ncc(-c2cccc(F)c2)cn1", "Target system": "Trypanosoma cruzi", "Result": 2.60}
{"Compound": "COc1ccc(S(=O)(=O)Nc2ccccc2OC)cc1NC(=O)CCCc1c[nH]c2ccccc12", "Target system": "Trypanosoma cruzi", "Result": 3.10}
{"Compound": "N#Cc1cnc(Nc2cccc(CCN3CCOCC3)c2)nc1Nc1ccccc1C(N)=O", "Target system": "Trypanosoma cruzi", "Result": 3.50}
{"Compound": "COc1ccc(Nc2nc(N[C@H]3CC[C@H](O)CC3)ncc2Br)c(C(N)=O)c1", "Target system": "Trypanosoma cruzi", "Result": 3.50}
{"Compound": "Cc1ccc(NC(C)C(=O)Nc2ccc(C#N)cc2)cc1S(=O)(=O)N1CCCCC1 (stereo unspecified)", "Target system": "Trypanosoma cruzi", "Result": 3.90}
{"Compound": "O=C(NCCc1ccccc1Cl)c1cccn1-c1cccnc1", "Target system": "Trypanosoma cruzi", "Result": 2.70}
{"Compound": "O=C(Nc1ccc(C(=O)N2CCCC2c2ccc3c(c2)OCCCO3)cc1)c1ccco1 (stereo unspecified)", "Target system": "Trypanosoma cruzi", "Result": 3.00}
{"Compound": "COc1ccc(S(=O)(=O)Nc2ccc(CN3CCN(C(=O)c4cccc(C#N)c4)CC3)cc2)cc1", "Target system": "Trypanosoma cruzi", "Result": 3.00}
{"Compound": "Oc1cc(CSc2ccc(Cl)cc2)nc(-c2ccccn2)n1", "Target system": "Trypanosoma cruzi", "Result": 3.20}
